I'd appreciate it if you could supply kinase still bound, per cent of control values for the items below.
- MEASURED_ON: UniProtKB Q9HAZ1
- Sequence (Q9HAZ1 whole entry, looked up): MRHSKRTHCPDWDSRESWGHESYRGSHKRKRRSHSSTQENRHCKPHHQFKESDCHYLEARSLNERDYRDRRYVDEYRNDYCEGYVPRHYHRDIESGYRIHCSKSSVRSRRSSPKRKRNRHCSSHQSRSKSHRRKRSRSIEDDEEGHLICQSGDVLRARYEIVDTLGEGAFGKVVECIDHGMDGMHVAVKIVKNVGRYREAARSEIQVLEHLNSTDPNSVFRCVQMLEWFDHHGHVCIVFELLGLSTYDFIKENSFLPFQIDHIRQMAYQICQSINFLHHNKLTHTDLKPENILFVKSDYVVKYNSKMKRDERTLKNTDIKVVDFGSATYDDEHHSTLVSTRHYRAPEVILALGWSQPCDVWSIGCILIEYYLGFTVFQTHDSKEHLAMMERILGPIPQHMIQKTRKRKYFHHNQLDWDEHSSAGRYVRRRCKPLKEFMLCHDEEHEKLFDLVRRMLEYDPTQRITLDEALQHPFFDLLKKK
- TEST_DETAILS: KINOMEscan competition binding
- COND: compound 10.0 µM
Report only the number, with the unit % understood.

## Task For the compound `CC(=O)Nc1ccc(-c2ccc(/C=C3\SC(=N)NC3=O)o2)c(O)c1` , what kinase still bound, per cent of control is on record?
## Result 13

## Task Quick check: kinase still bound, per cent of control of `N=C1NC(=O)/C(=C/c2ccc(-c3cnc4ccccc4c3)o2)S1` ?
## Result 20

## Task Dear colleague, I am looking for the recorded kinase still bound, per cent of control of the following compound: `Nc1cccc(-c2cc(/C=C3\SC(=O)NC3=O)c[nH]c2=O)c1`
## Result 16

## Task Any idea what its kinase still bound, per cent of control is? The compound is `COc1cc(N2CCN(C)CC2)ccc1Nc1ncc2c(n1)N(C(C)C)c1ccccc1C(=O)N2`
## Result 20

## Task Which measured kinase still bound, per cent of control value corresponds to `N=C1NC(=O)/C(=C/c2ccc(-c3ccc(F)cc3)o2)S1` ?
## Result 28
